Catalogue of compounds with associated IC50
molecular target: cloned human MC4R (Homo sapiens); construct: made in house; host or cells: Hi5 insect cells (baculovirus infection); membrane preparation; test: Membrane binding assay: competitive inhibition of [125I]NDP-α-MSH binding; conditions: read-out: MC4R IC50
Measured endpoint: IC50

- N[C@@H](Cc1ccc(OCc2ccccc2)cc1)C(=O)N1CCN(Cc2cccc(F)c2F)CC1: > 3000 nM
- N[C@@H](Cc1ccc(OCCc2ccc([N+](=O)[O-])cc2)cc1)C(=O)N1CCN(Cc2cccc(Cl)c2Cl)CC1: > 3000 nM
- Cc1cccc(COc2ccc(C[C@H](N)C(=O)N3CCN(Cc4cccc(Cl)c4Cl)CC3)cc2)c1: < 1500 nM
- N[C@@H](Cc1ccc(OCc2ccccc2)cc1)C(=O)N1CCCN(Cc2c(F)cccc2Cl)CC1: > 3000 nM
- N[C@@H](Cc1ccc(OCc2ccccc2)cc1)C(=O)N1CCCN(Cc2cccc(Oc3cccc(C(F)(F)F)c3)c2)CC1: < 1500 nM
- N[C@@H](Cc1ccc(OCc2ccccc2)cc1)C(=O)N1CCN(C2CCN(CCc3ccccc3)CC2)CC1: 1500 to 3000 nM

----------
biological target: cloned human MC4R (Homo sapiens); construct: made in house; host or cells: Hi5 insect cells (baculovirus infection); membrane preparation; assay: Membrane binding assay: competitive inhibition of [125I]NDP-α-MSH binding; settings: read-out: MC4R IC50
pIC50: −log10 of the molar value.
Below, each entry is listed with its recorded pIC50.
Measured endpoint: pIC50

• CCOc1cccc(-c2ccc(C[C@H](N)C(=O)N3CCN(Cc4cccc(Cl)c4Cl)CC3)cc2)c1 = > 5.82
• N[C@@H](Cc1ccc(OCc2ccccc2-c2ccccc2)cc1)C(=O)N1CCN(Cc2cccc(Cl)c2Cl)CC1 = > 5.82
• CSc1ccc(COc2ccc(C[C@H](N)C(=O)N3CCN(Cc4cccc(Cl)c4Cl)CC3)cc2)cc1 = 5.52 to 5.82
• Cc1ccc(C)c(CN2CCN(C(=O)[C@@H](N)Cc3ccc(OCc4ccccc4)cc3)CC2)c1 = 5.52 to 5.82
• CCOc1ccccc1COc1ccc(C[C@H](N)C(=O)N2CCN(Cc3cccc(Cl)c3Cl)CC2)cc1 = 5.52 to 5.82
• N[C@@H](Cc1ccc(OCc2ccccc2)cc1)C(=O)N1CCN(Cc2ccccc2)CC1 = < 5.52
• CSc1ccc(-c2ccc(C[C@H](N)C(=O)N3CCN(Cc4cccc(Cl)c4Cl)CC3)cc2)cc1 = > 5.82

----------
Below: a set of entries, each annotated with reported pIC50.
molecular target: cloned human MC4R (Homo sapiens); construct: made in house; host or cells: Hi5 insect cells (baculovirus infection); membrane preparation; test: Membrane binding assay: competitive inhibition of [125I]NDP-α-MSH binding; conditions: read-out: MC4R IC50
pIC50: −log10 of the molar value.
Measured endpoint: pIC50

* N[C@@H](Cc1ccc(OCc2cc(Cl)ccc2Cl)cc1)C(=O)N1CCN(Cc2cccc(Cl)c2Cl)CC1 [Example 212] | > 5.82
* N[C@@H](Cc1ccc(OCCc2ccc(F)cc2)cc1)C(=O)N1CCN(Cc2cccc(Cl)c2Cl)CC1 [Example 247] | > 5.82
* N[C@@H](Cc1ccc(OCc2c3ccccc3cc3ccccc23)cc1)C(=O)N1CCN(Cc2cccc(Cl)c2Cl)CC1 [Example 232] | < 5.52
* O=C([C@H](Cc1ccc(OCc2ccccc2)cc1)NCCN1CCCCC1)N1CCN(Cc2cccc(Cl)c2Cl)CC1 [Example 176] | > 5.82
* N[C@@H](Cc1ccc(OCc2ccccc2)cc1)C(=O)N1CCCN(Cc2cc(F)ccc2F)CC1 [Example 66] | < 5.52
* Cc1ccccc1COc1ccc(C[C@H](N)C(=O)N2CCN(Cc3cccc(Cl)c3Cl)CC2)cc1 [Example 216] | 5.52 to 5.82
* CC(C)(C)c1ccc(CN2CCCN(C(=O)[C@@H](N)Cc3ccc(OCc4ccccc4)cc3)CC2)cc1 [Example 39] | 5.52 to 5.82
* N[C@@H](Cc1ccc(OCc2ccccc2)cc1)C(=O)N1CCCN(Cc2cccc(C(F)(F)F)c2)CC1 [Example 55] | < 5.52

----------
target: cloned human MC4R (Homo sapiens, UniProt P32245); construct: made in house; host or cells: Hi5 insect cells (baculovirus infection); membrane preparation; assay: Membrane binding assay: competitive inhibition of [125I]NDP-α-MSH binding; conditions: read-out: MC4R IC50
Sequence (P32245 whole entry): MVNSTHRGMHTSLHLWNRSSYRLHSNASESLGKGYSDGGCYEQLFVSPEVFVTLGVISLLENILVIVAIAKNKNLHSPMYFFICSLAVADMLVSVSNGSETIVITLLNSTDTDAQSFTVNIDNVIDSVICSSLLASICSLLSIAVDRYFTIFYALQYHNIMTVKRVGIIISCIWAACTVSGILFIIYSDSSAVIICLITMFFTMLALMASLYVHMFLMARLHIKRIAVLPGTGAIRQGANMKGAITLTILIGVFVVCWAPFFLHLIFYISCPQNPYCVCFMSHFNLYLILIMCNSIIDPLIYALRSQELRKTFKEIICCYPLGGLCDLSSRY
Measured endpoint: IC50

- Cc1ccsc1CN1CCN(C(=O)[C@@H](N)Cc2ccc(OCc3ccccc3)cc2)CC1: > 3000 nM
- COc1cccc(CC(C)N2CCCN(C(=O)[C@@H](N)Cc3ccc(OCc4ccccc4)cc3)CC2)c1 (some centres unmarked): > 3000 nM
- N[C@@H](Cc1ccc(OCc2ccccc2)cc1)C(=O)N1CCN(Cc2ccccc2Sc2ccc(Cl)cc2)CC1: < 1500 nM
- CC(Cc1cccc(C(F)(F)F)c1)N1CCN(C(=O)[C@@H](N)Cc2ccc(OCc3ccccc3)cc2)CC1 (some centres unmarked): > 3000 nM
- N[C@@H](Cc1ccc(OCc2ccccc2)cc1)C(=O)N1CCCN(Cc2ccc3c(c2)Cc2ccccc2-3)CC1: 1500 to 3000 nM
- N[C@@H](Cc1ccc(OCc2ccc(Cl)c([N+](=O)[O-])c2)cc1)C(=O)N1CCN(Cc2cccc(Cl)c2Cl)CC1: < 1500 nM
- O=C([C@H](Cc1ccc(OCc2ccccc2)cc1)NCCCN1CCOCC1)N1CCN(Cc2cccc(Cl)c2Cl)CC1: < 1500 nM
- CCn1c2ccccc2c2cc(CN3CCN(C(=O)[C@@H](N)Cc4ccc(OCc5ccccc5)cc4)CC3)ccc21: < 1500 nM
- Cc1ccc(C)c(COc2ccc(C[C@H](N)C(=O)N3CCN(Cc4cccc(Cl)c4Cl)CC3)cc2)c1: 1500 to 3000 nM
- N[C@@H](Cc1ccc(-c2ccc(C(=O)O)cc2)cc1)C(=O)N1CCN(Cc2cccc(Cl)c2Cl)CC1: > 3000 nM
- COc1ccc(CC(C)N2CCCN(C(=O)[C@@H](N)Cc3ccc(OCc4ccccc4)cc3)CC2)cc1 (some centres unmarked): > 3000 nM

Just for reference, patent US6916812B2 is where these values come from.
